These data points were gathered from patent US8633197B2.

biological target: human DGAT1 (Homo sapiens, UniProt O75907); construct: FLAG (N); made in house; host or cells: SF9 insect cells (pFastBac baculovirus); total cell membranes used; assay: DGAT1 FlashPlate assay: inhibition of DGAT1 activity in membrane preparations; assay type: biochemical; settings: IC50 values expressed in M
Sequence (O75907 whole entry): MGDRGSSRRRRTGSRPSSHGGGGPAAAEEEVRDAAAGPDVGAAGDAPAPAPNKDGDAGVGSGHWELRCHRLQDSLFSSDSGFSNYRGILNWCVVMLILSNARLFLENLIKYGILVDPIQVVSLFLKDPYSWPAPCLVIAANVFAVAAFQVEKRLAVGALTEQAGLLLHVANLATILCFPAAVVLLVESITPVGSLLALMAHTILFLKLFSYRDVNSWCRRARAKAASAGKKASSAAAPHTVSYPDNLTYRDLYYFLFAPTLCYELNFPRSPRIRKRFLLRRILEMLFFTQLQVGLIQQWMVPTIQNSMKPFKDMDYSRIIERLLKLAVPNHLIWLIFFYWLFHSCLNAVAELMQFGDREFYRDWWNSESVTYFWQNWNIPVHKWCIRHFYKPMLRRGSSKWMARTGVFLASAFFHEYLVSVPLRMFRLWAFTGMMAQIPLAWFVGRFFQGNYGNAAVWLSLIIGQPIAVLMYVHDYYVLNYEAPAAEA
ENDPOINT: pIC50 (mean)

- CHEM SMILES: "CCCCCCC(=O)Nc1ccc(N2CCN(/C(=N\\C#N)Nc3ccc(C(=O)OC)cc3Cl)CC2)cc1"
  STUDY SYSTEM: "human DGAT1 (Homo sapiens, UniProt O75907)"
  pIC50 (mean): 7.24
- CHEM SMILES: "CN1CCN(c2ccc(C(=O)Nc3ccc(N4CCN(/C(=N\\C#N)Nc5ccccc5Cl)CC4)cc3)cc2)CC1"
  STUDY SYSTEM: "human DGAT1 (Homo sapiens, UniProt O75907)"
  pIC50 (mean): 6.10
- CHEM SMILES: "COCCN1CCN(C(=O)c2cc(Cl)c(N/C(=N/C#N)N3CCN(c4ccc(NC(=O)CNc5ccccc5)cc4)CC3)c(Cl)c2)CC1"
  STUDY SYSTEM: "human DGAT1 (Homo sapiens, UniProt O75907)"
  pIC50 (mean): 7.20
- CHEM SMILES: "COCCN1CCN(C(=O)c2cc(Cl)c(N/C(=N/C#N)N3CCN(c4ccc(NC(=O)c5ccccc5N5CCN(C)CC5)cc4)CC3)c(Cl)c2)CC1"
  STUDY SYSTEM: "human DGAT1 (Homo sapiens, UniProt O75907)"
  pIC50 (mean): 5.54
- CHEM SMILES: "COc1ccc(CC(=O)Nc2ccc(N3CCN(/C(=N\\C#N)Nc4c(Cl)cc(CN5CCCC5)cc4Cl)CC3)cc2)cc1"
  STUDY SYSTEM: "human DGAT1 (Homo sapiens, UniProt O75907)"
  pIC50 (mean): 8.16
- CHEM SMILES: "Cc1cc(C)n(-c2cccc(C(=O)Nc3ccc(N4CCN(/C(=N\\C#N)Nc5c(Cl)cc(CN6CCCC6)cc5Cl)CC4)cc3)c2)n1"
  STUDY SYSTEM: "human DGAT1 (Homo sapiens, UniProt O75907)"
  pIC50 (mean): 7.84
- CHEM SMILES: "COCCN1CCN(C(=O)c2cc(Cl)c(N/C(=N/C#N)N3CCN(c4ccc(NC(=O)Cc5ccc(OC)cc5)cc4)CC3)c(Cl)c2)CC1"
  STUDY SYSTEM: "human DGAT1 (Homo sapiens, UniProt O75907)"
  pIC50 (mean): 8.17
- CHEM SMILES: "COc1ccc(CC(=O)Nc2ccc(N3CCN(/C(=N\\C#N)Nc4c(C)cccc4Cl)CC3)cc2)cc1"
  STUDY SYSTEM: "human DGAT1 (Homo sapiens, UniProt O75907)"
  pIC50 (mean): 8.23
- CHEM SMILES: "CC(=O)OCC(=O)Nc1ccc(N2CCN(/C(=N\\C#N)Nc3c(F)cccc3Cl)CC2)cc1"
  STUDY SYSTEM: "human DGAT1 (Homo sapiens, UniProt O75907)"
  pIC50 (mean): 6.79
- CHEM SMILES: "Cc1cccc(Cl)c1N/C(=N/C#N)N1CCN(c2ccc(NC(=O)c3ccc(N4CCN(C)CC4)cc3)cc2)CC1"
  STUDY SYSTEM: "human DGAT1 (Homo sapiens, UniProt O75907)"
  pIC50 (mean): 6.64
- CHEM SMILES: "N#C/N=C(/Nc1ccc(C(=O)O)cc1Cl)N1CCN(c2ccc(NC(=O)CCCc3ccccc3)cc2)CC1"
  STUDY SYSTEM: "human DGAT1 (Homo sapiens, UniProt O75907)"
  pIC50 (mean): 7.58
